kon overview
Tested target: T1, sIL-6R (soluble IL-6 receptor; SBH Sciences) (human, UniProt P08887 20-365)
T1 construct: also called human IL-6R
T1 sequence: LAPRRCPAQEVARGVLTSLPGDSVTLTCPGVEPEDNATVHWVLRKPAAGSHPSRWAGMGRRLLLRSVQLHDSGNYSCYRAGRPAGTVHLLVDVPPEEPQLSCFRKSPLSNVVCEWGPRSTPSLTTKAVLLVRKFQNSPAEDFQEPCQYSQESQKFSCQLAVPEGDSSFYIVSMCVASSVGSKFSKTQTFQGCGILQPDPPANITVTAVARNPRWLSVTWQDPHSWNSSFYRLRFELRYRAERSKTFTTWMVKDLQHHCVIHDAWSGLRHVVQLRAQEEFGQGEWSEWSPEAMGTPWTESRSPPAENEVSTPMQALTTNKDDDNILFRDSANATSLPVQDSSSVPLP
Test details: SPR (BIAcore 3000), antibody on chip, sIL-6R analyte, 25 C
Write the answer as a number in M⁻¹ s⁻¹, unit excluded.

>>> recorded_result("204# (antibody, human IgG1, kappa, V domains shown) VH: QVQLQESGPGLVRPSQTLSLTCTVSGYSITSDHAWSWVRQPPGRGLEWIGFISYSGMTTYNPSLKSRVTMLRDTSKNQFSLRLSSVTAADTAVYYCARCLARITAMDYWGQGSLVTVSS VL: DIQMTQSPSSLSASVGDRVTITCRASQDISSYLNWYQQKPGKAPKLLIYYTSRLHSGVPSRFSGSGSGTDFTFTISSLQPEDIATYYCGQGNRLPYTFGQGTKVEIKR")
229000

// switching to the query binder
q: Give a short answer stating reported kon for 62# (antibody, human IgG1, kappa, V domains shown, also called Sample # 62) VH: QVQLQESGPGLVRPSQTLSLTCTVSGYSITSDHAWSWVRQPPGRGLEWIGFISYSGMTTYNPSLKSRVTMLRDTSKNQFSLRLSSVTAADTAVYYCARCLARATAMDYWGQGSLVTVSS VL: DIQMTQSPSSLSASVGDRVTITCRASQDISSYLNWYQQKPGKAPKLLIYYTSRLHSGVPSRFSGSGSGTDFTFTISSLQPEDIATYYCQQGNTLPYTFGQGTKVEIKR .
a: 256000
